Data credit: ChEMBL document CHEMBL1156006

test: Ratio of drug level from brain to plasma in MDR1A/1B knockout mouse at 2 mg/kg, sc after 1 hr

>  <Chemical String>
Cc1cccc(C(=O)N[C@H]2C[C@@H](n3cnc(NC(=O)Cc4cccc5ccccc45)c3)C2)n1

>  <Kp at 1 h>
1.1

$$$$

----------
Readings of Papp B→A for the listed compounds
assay: Apparent permeability from basolateral to apical side in human Caco-2 cells

>  <Chemical String>
CC(=O)N[C@H]1C[C@@H](n2cnc(NC(=O)Cc3cccc4ccccc34)c2)C1

>  <Unit Abbrev>
×10⁻⁶ cm/s

>  <Papp B→A>
17.5

$$$$
>  <Chemical String>
O=C(Cc1cccc2ccccc12)Nc1cn([C@H]2C[C@@H](NC(=O)c3ccccn3)C2)cn1

>  <Unit Abbrev>
×10⁻⁶ cm/s

>  <Papp B→A>
21

$$$$

----------
assay: Drug level in MDR1A/1B knockout mouse brain at 2 mg/kg, sc after 1 hr; format: ADME, organism-based; set-up: dose 2 mg/kg, route subcutaneous; conditions: read-out: Drug uptake
Reported Endpoint: concentration at 1 h (ng/g)

>  <Chemical String>
Cc1cccc(C(=O)N[C@H]2C[C@@H](n3cnc(NC(=O)Cc4cccc5ccccc45)c3)C2)n1

>  <Reported>
383

$$$$

----------
Each entry below lists one item and its recorded Ratio IC50 value.
experiment: Selectivity ratio, IC50 for CDK2/cyclin E over IC50 for CDK5/p25

>  <Chemical String>
COc1ccc(CC(=O)Nc2cn([C@H]3C[C@H](O)C3)cn2)cc1

>  <Ratio IC50>
0.7

$$$$
>  <Chemical String>
O=C(Cc1cccc2ccccc12)Nc1cn([C@H]2C[C@@H](NC(=O)c3cccnc3)C2)cn1

>  <Ratio IC50>
15

$$$$
>  <Chemical String>
COc1ccc(CC(=O)Nc2cn([C@H]3C[C@@H](C(=O)OC)C3)cn2)cc1

>  <Ratio IC50>
0.7

$$$$
>  <Chemical String>
O=C(Cc1cccc2ccccc12)Nc1cn([C@H]2C[C@@H](NC(=O)c3ccncc3)C2)cn1

>  <Ratio IC50>
11

$$$$
>  <Chemical String>
CC(=O)N[C@H]1C[C@@H](n2cnc(NC(=O)Cc3cccc4ccccc34)c2)C1

>  <Ratio IC50>
17

$$$$
>  <Chemical String>
COc1ccc(CC(=O)Nc2cn([C@H]3C[C@H](C(=O)OC)C3)cn2)cc1

>  <Ratio IC50>
0.2

$$$$
>  <Chemical String>
O=C(Cc1cccc2ccccc12)Nc1cn([C@H]2C[C@@H](NC(=O)c3cccc(Cl)n3)C2)cn1

>  <Ratio IC50>
34

$$$$
>  <Chemical String>
NC(=O)[C@H]1C[C@@H](n2cnc(NC(=O)Cc3cccc4ccccc34)c2)C1

>  <Ratio IC50>
2

$$$$
>  <Chemical String>
COc1ccc(CC(=O)Nc2cn([C@H]3C[C@@H](NC(C)=O)C3)cn2)cc1

>  <Ratio IC50>
7

$$$$

----------
experiment: Selectivity ratio, IC50 for CDK2/cyclin E over IC50 for CDK5/p25
# Ratio IC50 per entry
Reported Endpoint: Ratio IC50

>  <Chemical String>
COc1ccc(CC(=O)Nc2cn([C@H]3C[C@@H](NS(C)(=O)=O)C3)cn2)cc1

>  <Reported>
6

$$$$
>  <Chemical String>
COc1ccc(CC(=O)Nc2cn([C@H]3C[C@@H](O)C3)cn2)cc1

>  <Reported>
0.7

$$$$
>  <Chemical String>
O=C(Cc1ccccc1)Nc1ncc(C2CCC2)s1

>  <Reported>
1.5

$$$$
>  <Chemical String>
CC(=O)N(C)[C@H]1C[C@@H](n2cnc(NC(=O)Cc3cccc4ccccc34)c2)C1

>  <Reported>
15

$$$$
>  <Chemical String>
O=C(Cc1cccc2ccccc12)Nc1cn([C@H]2C[C@@H](NC(=O)c3ccccn3)C2)cn1

>  <Reported>
20

$$$$
